- tested-target: beta3 -adrenergic receptor (Rattus norvegicus, UniProt P26255)
- Construct: Rat epididymal fat pads are excised and placed in 0.9% saline; from tissue; host or cells: collagenase-isolated adipocytes from rat epididymal fat pads
- Sequence (P26255 whole entry): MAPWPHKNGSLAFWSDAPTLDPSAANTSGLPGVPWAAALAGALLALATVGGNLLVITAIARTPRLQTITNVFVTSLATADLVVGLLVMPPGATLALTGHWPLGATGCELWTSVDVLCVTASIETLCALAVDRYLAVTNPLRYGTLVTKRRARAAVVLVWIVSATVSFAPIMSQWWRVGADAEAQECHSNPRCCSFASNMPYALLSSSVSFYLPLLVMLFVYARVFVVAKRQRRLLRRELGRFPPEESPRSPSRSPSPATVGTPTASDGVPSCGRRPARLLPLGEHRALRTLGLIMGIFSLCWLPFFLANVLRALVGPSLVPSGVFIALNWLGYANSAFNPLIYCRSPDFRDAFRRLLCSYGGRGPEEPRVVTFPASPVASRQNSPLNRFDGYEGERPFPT
- assay-protocol: β3-effect: stimulation of adipocyte lipolysis (rat epididymal fat pad cells, glycerol release)
- Assay type: cell-based
- test-parameters: rat epididymal adipocytes, 37° C., 30 minutes; concentration giving 50% of the maximum rate of lipolysis of that compound
reported-endpoint: EC50 (nM)
API: value field is a number in nM; no unit string.

Inquiry: Supply EC50 value. Item: C[C@H](CCc1ccc2c(c1)OC(C(=O)O)(C(=O)O)O2)NC[C@H](O)c1cccc(Cl)c1
Reply text: 17

----------
- tested-target: beta1 -adrenergic receptor (Rattus norvegicus, UniProt P18090)
- Construct: membranes from rat heart; from tissue; host or cells: rat heart membranes
- Sequence (P18090 whole entry): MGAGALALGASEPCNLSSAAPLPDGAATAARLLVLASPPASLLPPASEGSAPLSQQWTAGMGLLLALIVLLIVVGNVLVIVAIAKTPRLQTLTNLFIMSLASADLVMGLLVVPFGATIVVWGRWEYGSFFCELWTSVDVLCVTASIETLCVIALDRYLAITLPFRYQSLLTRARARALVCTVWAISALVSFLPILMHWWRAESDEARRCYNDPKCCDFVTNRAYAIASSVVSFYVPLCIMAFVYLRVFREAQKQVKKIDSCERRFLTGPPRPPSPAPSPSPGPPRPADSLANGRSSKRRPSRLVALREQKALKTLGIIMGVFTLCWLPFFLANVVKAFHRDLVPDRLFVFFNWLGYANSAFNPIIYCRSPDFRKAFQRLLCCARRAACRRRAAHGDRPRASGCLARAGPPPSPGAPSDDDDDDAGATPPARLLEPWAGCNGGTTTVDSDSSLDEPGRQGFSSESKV
- assay-protocol: Heart binding: β1-effect, membranes from rat heart, [125I]iodocyanopindolol
- test-parameters: incubation 1 hour
reported-endpoint: IC50 (nM)
API: value field is a number in nM; no unit string.

Inquiry: Determine reported IC50 for C[C@H](CCc1ccc2c(c1)OC(C(=O)O)(C(=O)O)O2)NC[C@H](O)c1cccc(Cl)c1 ; test system: beta1 -adrenergic receptor (Rattus norvegicus, UniProt P18090).
Reply text: 19000

----------
- tested-target: beta2 -adrenergic receptor (Rattus norvegicus, UniProt P10608)
- Construct: membranes from rat lung; from tissue; host or cells: rat lung membranes
- Sequence (P10608 whole entry): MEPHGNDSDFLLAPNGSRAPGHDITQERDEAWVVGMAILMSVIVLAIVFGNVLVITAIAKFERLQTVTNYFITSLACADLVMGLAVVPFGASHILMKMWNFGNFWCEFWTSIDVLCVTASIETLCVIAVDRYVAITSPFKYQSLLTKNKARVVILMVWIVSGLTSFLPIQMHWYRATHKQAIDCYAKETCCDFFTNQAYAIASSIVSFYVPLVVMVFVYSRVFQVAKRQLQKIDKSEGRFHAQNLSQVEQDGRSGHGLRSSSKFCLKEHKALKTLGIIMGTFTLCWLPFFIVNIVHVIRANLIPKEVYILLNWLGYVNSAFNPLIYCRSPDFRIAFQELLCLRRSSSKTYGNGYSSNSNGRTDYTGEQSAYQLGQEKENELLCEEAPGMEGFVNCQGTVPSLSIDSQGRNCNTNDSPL
- assay-protocol: Lung binding: β2-effect, membranes from rat lung, [125I]iodocyanopindolol
- test-parameters: incubation 1 hour
reported-endpoint: IC50 (nM)
API: value field is a number in nM; no unit string.

Inquiry: Determine reported IC50 for C[C@H](CCc1ccc2c(c1)OC(C(=O)O)(C(=O)O)O2)NC[C@H](O)c1cccc(Cl)c1 ; test system: beta2 -adrenergic receptor (Rattus norvegicus, UniProt P10608).
Reply text: 20000

Values were extracted from patent US5482971A.
